The measurements presented in this section are drawn from patent US11807625B2.

Assay: PK of compound of Formula (Ia) after single subcutaneous dose of solution formulations in Wistar Han rats
Format: in vivo
Details: male, Wistar Han, rat, plasma, sc, 50 mg/kg, 168 h; individual rats; SC 50 mg/kg; solution S, 500 mg/mL
measurement-label: concentration at 168 h
Write down the value, and be sure its unit follows.

// field: concentration at 168 h; key: CC(C)(C#Cc1ccc(-c2ccc(Cl)c3c(NS(C)(=O)=O)nn(CC(F)(F)F)c23)c([C@H](Cc2cc(F)cc(F)c2)NC(=O)Cn2nc(C(F)(F)F)c3c2C(F)(F)[C@@H]2C[C@H]32)n1)S(C)(=O)=O [compound of Formula (Ia)] ; value = 123 nM

---

Assay: PK of compound of Formula (Ia) after single subcutaneous dose of solution formulations in Wistar Han rats
Type: in vivo
Conditions: male, Wistar Han, rat, plasma, sc, 50 mg/kg, Wistar Han rats, SC 50 mg/kg, 500 mg/mL solution X (5.00% ethanol, 1.91% poloxamer 188), 2688 h, Mean n = 3
measurement-label: concentration at 2688 h (µM)
The response must be a number in µM with no trailing unit.

// field: concentration at 2688 h; key: CC(C)(C#Cc1ccc(-c2ccc(Cl)c3c(NS(C)(=O)=O)nn(CC(F)(F)F)c23)c([C@H](Cc2cc(F)cc(F)c2)NC(=O)Cn2nc(C(F)(F)F)c3c2C(F)(F)[C@@H]2C[C@H]32)n1)S(C)(=O)=O ; value = 0.168

---

Experiment: PK of compound of Formula (Ia) after single subcutaneous dose of solution formulations in Wistar Han rats
Format: in vivo
Conditions: male, Wistar Han, rat, plasma, sc, 50 mg/kg, 4704 h; mean, n = 3 rats; SC 50 mg/kg; solution R, 400 mg/mL
Procedure: Formulations containing the compound of Formula (Ia), or a pharmaceutically acceptable salt thereof, were prepared as solutions and optionally administered subcutaneously or intramuscularly to rats, rabbits, and/or dogs. A solution of about 400 mg/mL of the compound of Formula (Ia) having 19.14 w/w % water, 40.66 w/w % PEG 300, 35.20 w/w % of a sodium salt of a compound of Formula (Ia), and 5.00% ethanol was prepared. […]
measurement-label: concentration at 4704 h
Write down the value, and be sure its unit follows.

// field: concentration at 4704 h; key: CC(C)(C#Cc1ccc(-c2ccc(Cl)c3c(NS(C)(=O)=O)nn(CC(F)(F)F)c23)c([C@H](Cc2cc(F)cc(F)c2)NC(=O)Cn2nc(C(F)(F)F)c3c2C(F)(F)[C@@H]2C[C@H]32)n1)S(C)(=O)=O ; value = 69 nM

---

Experiment: PK of compound of Formula (Ia) after single subcutaneous dose of solution formulations in Wistar Han rats
Assay type: in vivo
Details: male, Wistar Han, rat, plasma, sc, 50 mg/kg, 2016 h; mean, n = 3 rats; SC 50 mg/kg; solution S, 500 mg/mL
measurement-label: concentration at 2016 h

// field: concentration at 2016 h; key: CC(C)(C#Cc1ccc(-c2ccc(Cl)c3c(NS(C)(=O)=O)nn(CC(F)(F)F)c23)c([C@H](Cc2cc(F)cc(F)c2)NC(=O)Cn2nc(C(F)(F)F)c3c2C(F)(F)[C@@H]2C[C@H]32)n1)S(C)(=O)=O ; value = 171 nM
